# log10 XC50 annotations
# Test system: Plasmodium falciparum
# assayNotes: GSK_TCMDC: Inhibition of Plasmodium falciparum 3D7 in whole erythrocytes, using parasite LDH activity as an index of growth.
# Format: functional, organism-based
# conditionNotes: Plasmodium falciparum, 3D7
Note: values are log10 of XC50 expressed in nM.

Study these solved cases before continuing.
CCOc1cc2ccccc2cc1CNCCCCCCNCc1cc2ccccc2cc1OCC = 2.99
COc1cc(Nc2nccc(-c3c(-c4cccc(NC(=O)c5c(F)cccc5F)c4)nn4ccccc34)n2)cc(OC)c1OC = 1.89
C=C[C@H]1CN2CC[C@H]1C[C@H]2[C@H](O)c1cc(-c2ccc(Cl)cc2)nc2ccc(OC)cc12 = 1.48
O=C(Nc1cccc(Cl)c1Cl)N[C@H]1CCN(CCCCCNC(=O)C2CC2c2ccc(Cl)c(Cl)c2)C1 (stereo not given in full) = 3.11
O=C(Cn1c(CCc2cccc(F)c2F)cc(=O)c2cccnc21)N(CCn1ccnc1)Cc1ccc(-c2ccc(C(F)(F)F)cc2)cc1 = 2.83
CC1(C)N=C(N)N=C(N)N1c1ccc(Cl)cc1 = 1.49
O=C(Nc1ccc(C(F)(F)F)cc1)c1ccc(S(=O)(=O)NC2CCN(Cc3ccccc3)C2)cc1 (stereo not given) = 2.79
Cc1[nH]c2cc(Cl)ccc2c1C1=CCN(CCN2CCOc3c(Br)cccc3C2=O)CC1 = 2.94
N#CCCn1nc(-c2ccc(Cl)cc2)c2c(c1=O)CCCC2 = 2.95

Could you now consider this next compound?
What measured log10 XC50 goes with NC(=O)c1cccc(Nc2nccc(Nc3ccc(Oc4cccc5ccccc45)cc3)n2)c1 ?
3.06

----------
# System: Plasmodium falciparum
# assayNotes: GSK_TCMDC: Inhibition of Plasmodium falciparum 3D7 in whole erythrocytes, using parasite LDH activity as an index of growth.
# Assay type: functional, organism-based
# conditionNotes: Plasmodium falciparum, 3D7
Form field: XC50 (one value per entry).
# output: bare number, implied unit nM

Solved cases below.
Cc1cc(C(=O)NC2CCN(CC3(c4ccccc4)CCCCC3)CC2)on1 = 258
COc1ccc(NC(=O)[C@H](Cc2ccccc2)Nc2cc(C)nc(NCCN3CCCC3)n2)cc1 = 1390
COc1ccc2nccc([C@@H](O)CN3CCC(NCc4cc5oc(=O)n(C)c5cc4F)CC3)c2c1 = 661
CC(=O)NC1=NC(C)(C)N(OCc2ccc(Cl)c(Cl)c2)C(NC(C)=O)=N1 = 3.2
CN(c1ccc(NC(=O)Nc2cc(C(C)(C)C)on2)cc1)c1ccnc(NCCN2CCOCC2)n1 = 1120

Give its XC50 value. Item: CC(C)Cn1c(Sc2ccc(C#N)c([N+](=O)[O-])c2)nnc1-c1cccc(Cl)c1
301

Need XC50, item Nc1nc(Nc2cccc(Cl)c2)ncc1C(=O)NCc1ccncc1
832

Quick one: XC50 for O=C(N[C@@H](Cc1ccccc1)C(=O)NC1CCCc2ccccc21)c1ccc(O)c(-c2cccc(C(F)(F)F)c2)c1 (stereo partly drawn) ?
1000

Fill in: XC50 of Cc1ccc(NC(=O)NC2CCN(c3ccnc4cc(Cl)ccc34)CC2)cc1 is ___
315

# query: XC50 of entry NOCCCCOc1ccc(Cl)cc1
785

Any idea what its XC50 is? The molecule is O=C(NCC(CCCN1CCC(c2c[nH]c3ccccc23)CC1)c1ccccc1)Nc1ccc(Cl)c(Cl)c1 (stereo not drawn)
787

What does the data say about its XC50? Entry: CCn1c(-c2nonc2N)nc2c(-c3cccc(NC(=O)Nc4ccc5c(c4)CCC5)c3)ncc(OCCCN)c21
783

Form field: reported XC50 of Cc1[nH]c(C)c(-c2ccc(OCc3ccccc3C(F)(F)F)nc2)c(=O)c1Br
16.4

----------
# System: Plasmodium falciparum
# assayNotes: GSK_TCMDC: Inhibition of Plasmodium falciparum 3D7 in whole erythrocytes, using parasite LDH activity as an index of growth.
# Assay type: functional, organism-based
# conditionNotes: Plasmodium falciparum, 3D7
// NB: equality with 0.8 µM counts as Not met; only XC50 strictly below is Met

Is XC50 strictly under 0.8 µM for the entry COc1ccc2nccc([C@@H](O)CN3CCC(NCc4ccc(OC)c(NC(C)=O)c4)CC3)c2c1 ?
Not met

----------
Collected XC50 values appear next to each entry.
# Tested on: Plasmodium falciparum
# assayNotes: GSK_TCMDC: Inhibition of Plasmodium falciparum 3D7 in whole erythrocytes, using parasite LDH activity as an index of growth.
# Assay type: functional, organism-based
# conditionNotes: Plasmodium falciparum, 3D7
Unit µM implied. Number only.

Cc1ccc(CN2CCC(Oc3cccc(NC(=O)c4ccc(C(F)(F)F)cc4)c3)CC2)cc1 = 1.02

// XC50 lookup, key: O=C(CCCCCNC(=O)c1ccc(O)c(-c2ccc(Cl)c(Cl)c2)c1)NCCN1CCCC1
0.98

Quick check: XC50 of Cc1nn(-c2ccccc2)c2sc(C(=O)N(CCCN(C)C)c3nc(-c4ccccc4)cs3)cc12 ?
0.981

----------
# System: Plasmodium falciparum
# assayNotes: GSK_TCMDC: Inhibition of Plasmodium falciparum 3D7 in whole erythrocytes, using parasite LDH activity as an index of growth.
# Format: functional, organism-based
# conditionNotes: Plasmodium falciparum, 3D7
Catalogue of XC50 values
Give the quantity in nM, number only.

COc1cccc(CNC[C@@H](O)[C@H](Cc2ccccc2)NC(=O)c2cc(NC(C)C)cc(N3CCCCS3(=O)=O)c2)c1 = 784
Cc1noc(-c2ccc3c(c2)CCN(CCC2CCC(NC(=O)/C=C/c4cccc(Cl)c4)CC2)CC3)n1 (centres undefined) = 998
CO/C(=C\C=C\c1cc2cc(Cl)c(Cl)cc2[nH]1)C(=O)NC1CC2CCCC(C1)N2C (centres undefined) = 1000

So what does the record say about XC50 for ON=C1CCc2cc(-c3nc(-c4ccc(OCCN5CCCCC5)cc4)[nH]c3-c3ccncc3)ccc21 ?
804

----------
# System: Plasmodium falciparum
# assayNotes: GSK_TCMDC: Inhibition of Plasmodium falciparum 3D7 in whole erythrocytes, using parasite LDH activity as an index of growth.
# Format: functional, organism-based
# conditionNotes: Plasmodium falciparum, 3D7
reportedMetric: XC50 (nM)
Reply with just the number (in nM).

Below are worked cases with known answers.
Nc1oc2c(CN3CCCCCC3)c(O)ccc2c(=O)c1-c1nc2ccccc2s1 = 516
CC(C)(C)C1CCC(C(=O)c2ccc3ccccc3c2O)CC1 (configuration not stated) = 751
COc1ccccc1CNC(=O)c1cc(C2CC2)nc2c1cnn2C(C)C = 1020
CC(Oc1cccc(Cl)c1)C(=O)N1CCc2ccccc21 (configuration not stated) = 512
Brc1ccc(Nc2ccnc3cc(-c4nccs4)ccc23)cc1Oc1ccnc2cc(-c3nccs3)ccc12 = 1060
Fc1ccc2[nH]c(-c3cccc(-c4ccc(CN5CCN(CCN6CCOCC6)CC5)cc4)c3)nc2c1 = 307
COc1ccc2c(=NN=Cc3ccncc3)cc(C)[nH]c2c1 = 814
O=C(NC1CCCCC1)c1ccc(O)c(-c2cccc(C(F)(F)F)c2)c1 = 712

Using the record for COc1cc(COc2c(C)nc(N)nc2N)cc(OC)c1OC , report its XC50.
332

Requested read-out: XC50. Entry: OC1=C2C(=Nc3ccccc3SC2c2ccccc2)c2ccccc21 (configuration not stated)
325

Which XC50 reading was recorded for the molecule CCNc1cc(C)nc(Nc2ccc(NC(=O)C3CCCC3)cc2)n1 ?
1120

// query XC50 value for entry c1ccc(CCNCc2ccc(-c3ccc(CNc4ccc5ncccc5c4)cc3)cc2)cc1
916

What does the record list as XC50 for O=S(=O)(NCCN1CCCC1)c1cccc(-c2cccc(CNCc3ccsc3)c2)c1 ?
872

Which XC50 reading was recorded for the molecule S=C(Nc1ccc2c(c1)OCCO2)NC1CCC(CN2CCC(c3c[nH]c4ccccc34)CC2)CC1 (configuration not stated) ?
653

State the recorded XC50 for this entry: Cc1noc(-c2cccs2)c1C(=O)NC(C)c1cccc2ccccc12 (configuration not stated)
129

# query: XC50 of entry COc1cccc2c(NN=Cc3cccc(Cl)c3)ccnc12
838

----------
Examples of molecules with documented XC50 follow.
# Test system: Plasmodium falciparum
# assayNotes: GSK_TCMDC: Inhibition of Plasmodium falciparum 3D7 in whole erythrocytes, using parasite LDH activity as an index of growth.
# Format: functional, organism-based
# conditionNotes: Plasmodium falciparum, 3D7
Don't forget the unit after the value.

Example entries and their recorded answers appear below.
Cc1ccccc1Nc1cc(Nc2ccccc2C)c2ccccc2n1 = 782 nM
CC(=O)Nc1ccc2[nH]cc(C3CCN(CCC4CCN(C(=O)/C=C/c5ccc(Cl)c(Cl)c5)CC4)CC3)c2n1 = 518 nM

Please turn your attention to the following entry.
Given the molecule Cc1nc(Nc2ccc(F)cc2)nc(N2CCc3cc(O)ccc3C2C)c1C (stereo not drawn) , what is its reported XC50?
754 nM

----------
Consider the following compounds and their measured XC50 readings.
# System: Plasmodium falciparum
# assayNotes: GSK_TCMDC: Inhibition of Plasmodium falciparum 3D7 in whole erythrocytes, using parasite LDH activity as an index of growth.
# Format: functional, organism-based
# conditionNotes: Plasmodium falciparum, 3D7
Form entry: value (nM) — number only.

I would be grateful if you could share the reported XC50 for COc1ccc(NC(=O)/C=C/c2ccccc2Cl)cc1OCCN1CCC(Cc2cc3ccccc3[nH]2)CC1 .
903

Would you mind telling me what XC50 value was observed for O=C1CCCN1CCCNCc1cccc(-c2cccc(-c3nc4cc(F)ccc4[nH]3)c2)c1 ?
598

Record request: XC50 value, item CC(=O)Nc1cccc(C(=O)Nc2cccc(-c3ccc(-c4nc5cc(F)ccc5[nH]4)s3)c2)c1
896

Which measured XC50 value corresponds to COc1cc(NC(=O)CCCCCCCN2CCN(C)CC2)c2ncccc2c1 ?
611
